Biological target: Hexose transporter 1 (Plasmodium falciparum)
Experiment: ST_JUDE_LEISH: Cytotoxicity at 2uM final concentration against transgenic Leishmania Mexicana promastigotes LmPfHT that are glucose transport deficient and complemented with the Plasmodium falciparum hexose transporter. Activity is measured by DNA content using SYBR green in vitro
Type: functional
Category scheme (inhibition): small value: < 4%; mid value: ≥ 4% and < 7%; large value: ≥ 7%

CC(C)CN1CCCN(Cc2cccc(NC(=O)c3ccc(Cl)c(Cl)c3)c2)CC1 :: large value
O=C(/C=C/c1ccc(Cl)c(Cl)c1)NCCCCCN1CCC(c2c[nH]c3ccccc23)CC1 :: mid value
COc1cccc2c1CCN(CCN1CCC(CNC(=O)c3ccc(-c4ccc(C#N)cc4)cc3)CC1)C2 :: small value
FC(F)(F)c1ccc(Nc2nnnc3ccccc23)cc1 :: large value

Next:
Would you mind sorting Oc1ccc(CCNc2nc(NCCOc3ccccc3-c3ccccc3)nc(N3CCNCC3)n2)cc1 into the appropriate category? small value

###

Listing of recorded inhibition by entry.
Target: Glucose transporter (Leishmania mexicana) (UniProt O61059)
Assay: ST_JUDE_LEISH: Cytotoxicity at 2uM final concentration against transgenic Leishmania Mexicana promastigotes LmGT2 that are glucose transport deficient and complemented with the L. Mexicana glucose transporter 2. Activity is measured by DNA content using SYBR green in vitro
Format: functional
In your response, put the unit directly after the numeric value.

Look over these answered cases.
Cc1cc2nc(-c3ccc(OCC(=O)NCc4cccc(C(F)(F)F)c4)cc3)[nH]c2cc1C :: -1.65%
ON=C1CCc2cc(-c3cc(-c4ccc(OC5CCNCC5)cc4)oc3-c3ccncc3)ccc21 :: -0.04%
CC(C)N1CCN(c2ccc(OCCCCN3CCN(c4cccc(Cl)c4Cl)CC3)cc2Cl)CC1 :: -2.3%
O=C(Nc1ccc(C(F)(F)F)cc1)c1cccc(S(=O)(=O)NCC2CCCN(CC3CCCCC3)C2)c1 (stereo not drawn) :: 0.02%
CC12CCC(C(=O)N(CC(O)Cn3c4ccc(Cl)cc4c4cc(Cl)ccc43)C1=O)C2(C)C (stereo not drawn) :: 0.38%

# inhibition lookup, item O=C(Nc1ccc(Oc2ccccc2)cc1)N(Cc1ccc(-c2ccc(CN3CCNCC3)cc2)cc1)C1CCN(Cc2ccccc2)CC1 -0.33%

# inhibition lookup, item Nc1nc(N)c2c(ccc3c2ccn3Cc2ccc3c(c2)OCO3)n1 93.7%

# inhibition lookup, item CCCN(c1ccc(C(F)(F)F)cc1[N+](=O)[O-])S(=O)(=O)C(c1ccccc1)c1ccc(C(F)(F)F)cc1[N+](=O)[O-] (stereo not drawn) -1.01%

###

Target: Hexose transporter 1 (Plasmodium falciparum)
Assay: ST_JUDE_LEISH: Cytotoxicity at 2uM final concentration against transgenic Leishmania Mexicana promastigotes LmPfHT that are glucose transport deficient and complemented with the Plasmodium falciparum hexose transporter. Activity is measured by DNA content using SYBR green in vitro
Type: functional
Listing of recorded inhibition by entry.
API: value field is a number in %; no unit string.

Look over these answered cases.
Cc1cccc2nc(-c3cccc(-c4cccc(C(=O)NCc5nccn5C)c4)c3)[nH]c12 :: 10.8
Nc1nc(N)c2c(Oc3cccnc3)cccc2n1 :: -1.61
O=C(Nc1ccc(Cl)cc1)Nc1ccc(-c2csc(-c3nc4ccccc4[nH]3)c2)cc1 :: 1.1
O=C(Cc1ccc(NC(=O)c2ccc(O)c(-c3ccc(Cl)c(Cl)c3)c2)cc1)NCc1cccc(C(F)(F)F)c1 :: 2.65
NCc1ccc(Nc2nccc(Nc3ccc(-c4ccccc4)cc3)n2)cc1 :: 4.91
CCC1(CC)N=C(N)N=C(N)C1c1ccc(Cl)c(Cl)c1 (stereo not given) :: 0.07
CC(=O)Nc1nc(C)c(-c2csc(Nc3ccc(Cl)cc3)n2)s1 :: -1.35
COc1ccc(CCNc2nc(NCc3ccccc3)c3cc(OC)c(OC)cc3n2)cc1OC :: 8.24

# inhibition lookup, item Nc1ncc(-c2cccc(F)c2)cc1-c1nc2cc(F)ccc2[nH]1 11.1

# inhibition lookup, item N#Cc1ccc2c(c1)CCN(CCC1CCC(NC(=O)/C=C/c3c[nH]c4c(Br)cccc34)CC1)CC2 (stereo not given) 15.6

###

Molecular target: Glucose transporter (Leishmania mexicana) (UniProt O61059)
Assay: ST_JUDE_LEISH: Cytotoxicity at 2uM final concentration against transgenic Leishmania Mexicana promastigotes LmGT2 that are glucose transport deficient and complemented with the L. Mexicana glucose transporter 2. Activity is measured by DNA content using SYBR green in vitro
Assay type: functional
Listing of recorded inhibition by entry.
API: value field is a number in %; no unit string.

CN1CCN(c2ccnc3ccc(NC(=O)Cc4cccc(Cl)c4Cl)cc23)CC1 :: -0.31
Nc1nccc2ccc(-c3cccc4ncccc34)cc12 :: 1.15
CCOc1cc(C)ccc1C1CCN(CCCCNC(=O)c2nc(-c3ccc(C(F)(F)F)cc3)[nH]c2C)CC1 :: -0.05
CC(C)CCNc1nc(NCCCc2ccccc2)c2cc(O)ccc2n1 :: 8.25

Here is another molecule to look at.
# inhibition lookup, item CC[C@H](C)CNC(=O)c1ccnc(-c2cccc(CN(C)C3CCN(C)CC3)c2)c1 2.59

###

Listing of recorded inhibition by entry.
Target: Glucose transporter (Leishmania mexicana)
Assay: ST_JUDE_LEISH: Cytotoxicity at 2uM final concentration against transgenic Leishmania Mexicana promastigotes LmGT2 that are glucose transport deficient and complemented with the L. Mexicana glucose transporter 2. Activity is measured by DNA content using SYBR green in vitro
Type: functional
API: value field is a number in %; no unit string.

Look over these answered cases.
Cc1sc2ncnc(Sc3nc4ccccc4[nH]3)c2c1C :: 3.58
COC(=O)c1cc(C(O)CNC(C)CCCc2ccccc2)ccc1O (stereo not given) :: -0.85
CCCCCN1CCCC(CNS(=O)(=O)c2cccc(C(=O)Nc3ccc(C(F)(F)F)cc3)c2)C1 (stereo not given) :: -0.09
NS(=O)(=O)c1cccc(Nc2nccc(-c3cnn4ncccc34)n2)c1 :: 64.8
CO/C(=C\C=C\c1cc2cc(Cl)c(Cl)cc2[nH]1)C(=O)NCCCN1CCN(c2cccc(Cl)c2)CC1 :: -1.82

# inhibition lookup, item NC1CCN(CCNCc2cccc(-c3ccc(-c4nc5cc(C(F)(F)F)ccc5[nH]4)cc3)c2)C1 (stereo not given) 2.67

# inhibition lookup, item Cc1nn(-c2ccccc2)c2nc(-c3ccccc3)cc(C(=O)N3CCOCC3)c12 -2.24

# inhibition lookup, item CN(C)c1ccc(-c2ccc(C(=O)NC3CCN(Cc4ccc(C(C)(C)C)cc4)CC3)s2)cc1 -2.12

# inhibition lookup, item O=C(c1ccccc1[N+](=O)[O-])N(Cc1ccccc1)c1ccccn1 6.57

# inhibition lookup, item COc1ccc(-c2cnc3[nH]cc(-c4ccncc4)c3c2)cc1OC 65.3

# inhibition lookup, item COc1cc2nc(Nc3ccc4c(c3)OCCO4)nc(N)c2cc1OC 1.75

# inhibition lookup, item Cc1cc(Nc2cccc(Cl)c2)nc2ccc(NC(=O)c3ccc(=O)[nH]c3)cc12 3.64

# inhibition lookup, item O=C(/C=C/c1ccc(F)c(Br)c1)NCCCCCN1CCC(c2c[nH]c3ccccc23)CC1 -1.08

# inhibition lookup, item Cc1ccc2c(c1)NCC21CCN(C[C@@H](O)C2CCN(c3ccnc(Cl)c3)CC2)CC1C (stereo not given in full) 0.18

# inhibition lookup, item CCNc1cc(C(=O)N[C@@H](Cc2ccccc2)[C@H](O)CNC23CC4CC(CC(C4)C2)C3)cc(N2CCCCS2(=O)=O)c1 -0.1

# inhibition lookup, item O=C(NCc1cccc2ccccc12)c1ccc(CNC2CCN(Cc3ccccc3)CC2)cc1 4.22

# inhibition lookup, item N=C(N)Nc1ccc(NC(=O)Nc2ccc(NC(=N)N)cc2)cc1 0.04

# inhibition lookup, item Nc1nccc2ccc(-c3cccc(O)c3)cc12 4.01

# inhibition lookup, item COc1cc2c(cc1OC)CC(NCc1ccc(-c3ccc4nc[nH]c4c3)cc1)C2 4.38

# inhibition lookup, item CN1CCN(c2cc3c(cc2Cl)CCN3C(=O)Cc2ccc(NC(=O)Nc3cccc4ccccc34)cc2)CC1 -1.64

# inhibition lookup, item COc1ccc(-c2ccc([N+](=O)[O-])cc2C(=O)NCC(C)Oc2ccc(C(F)(F)F)cc2)cc1 (stereo not given) -3.99

# inhibition lookup, item CC(C)(C)C(Cn1ccnc1)NCc1c[nH]nc1-c1ccc(-c2ccccc2)cc1 (stereo not given) 11.5

# inhibition lookup, item CN1CCC(C(=O)Nc2cccc(-c3ccc(-c4nc5cc(F)ccc5[nH]4)cc3)c2)CC1 9.64

###

Molecular target: Solute carrier family 2, facilitated glucose transporter member 1 (Homo sapiens) (UniProt P11166)
Sequence (P11166 whole entry): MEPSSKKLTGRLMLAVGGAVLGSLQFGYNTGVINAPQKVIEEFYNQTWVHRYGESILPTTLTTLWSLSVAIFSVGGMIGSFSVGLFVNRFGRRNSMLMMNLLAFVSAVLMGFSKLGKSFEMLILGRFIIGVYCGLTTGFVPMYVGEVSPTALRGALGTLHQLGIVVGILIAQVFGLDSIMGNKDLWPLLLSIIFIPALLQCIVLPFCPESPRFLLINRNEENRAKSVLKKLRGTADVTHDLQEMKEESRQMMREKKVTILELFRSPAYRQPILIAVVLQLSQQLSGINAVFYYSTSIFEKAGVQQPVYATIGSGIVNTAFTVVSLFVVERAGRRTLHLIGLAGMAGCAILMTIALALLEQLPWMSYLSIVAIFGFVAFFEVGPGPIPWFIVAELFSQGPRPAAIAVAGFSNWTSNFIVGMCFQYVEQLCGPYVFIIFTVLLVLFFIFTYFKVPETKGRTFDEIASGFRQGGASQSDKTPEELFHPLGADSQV
Test: ST_JUDE_LEISH: Cytotoxicity at 2uM final concentration against transgenic Leishmania Mexicana promastigotes LmGLUT1 that are glucose transport deficient and complemented with the human glucose transporter GLUT1. Activity is measured by DNA content using SYBR green in vitro
Type: functional
Listing of recorded inhibition by entry.
API: value field is a number in %; no unit string.

Look over these answered cases.
Fc1ccc2[nH]c(-c3cccc(-c4ccc(CNCc5cnn(-c6ccccc6)n5)cc4)c3)nc2c1 :: 0.4
Cc1nc2c(-n3cc(Cn4ccnc4)c4ccccc43)ncnc2n1-c1ccc(Cl)cc1Cl :: 0.32

# inhibition lookup, item Cc1nc(-c2nc(N3CCC(C(N)=O)CC3)ncc2-c2ccsc2)sc1C 8.94

# inhibition lookup, item CC1CCC(C[C@@H](C(=O)N[C@H](C(=O)Nc2nccs2)[C@@H](C)O)[C@H](CCC(F)(F)F)N(O)C=O)CC1 (some centres undefined) 0.36

# inhibition lookup, item COc1cc(/C=C/C(=O)NCC(CCNc2cc(=O)c3ccccc3[nH]2)NCc2cc(Br)cc(Br)c2)cc(OC)c1 (centres undefined) 2.85

# inhibition lookup, item COCCNCc1cccc(-c2ccc3c(Nc4ccc(Oc5ccccc5)cc4)ccnc3c2)c1 -0.07

# inhibition lookup, item CNC(=O)c1cnc(Nc2ccc(OCC(O)CN(C)C)cc2)nc1Nc1cccc(OC(C)C)c1 (centres undefined) 2.84

# inhibition lookup, item Cc1cc(F)ccc1-c1nc(N(C)CCN(C)C(=O)N(C)c2ccccc2)nc2c1ccc(=O)n2-c1c(F)cccc1F 2.99
